Examples of molecules with documented cell viability follow.
tested on: Calu-3; assay: cell viability relative to DMSO; higher = less toxic; conditions: 72 h; 100 nM
Give the number; % is assumed, so skip it.

Worked examples, 5 molecules total:
- molecule: "CN1C(CCl)Nc2cc(Cl)c(S(N)(=O)=O)cc2S1(=O)=O (stereo not drawn) [methyclothiazide]"
  observed-value: 97.9
- molecule: "CCCCCCNC(=O)n1cc(F)c(=O)[nH]c1=O"
  observed-value: 90
- molecule: "O=C(O)CNC(=O)c1c(O)c2ccccc2n(Cc2ccccc2)c1=O"
  observed-value: 85.8
- molecule: "C[C@H]1C[C@H]2[C@@H]3CCC4=CC(=O)C=C[C@]4(C)[C@@]3(F)[C@@H](O)C[C@]2(C)[C@@]1(O)C(=O)CO"
  observed-value: 95
- molecule: "COC(=O)Nc1ccc2[nH]cc(CCNC(C)=O)c2c1"
  observed-value: 98.1

Fill in the blank: the reported cell viability of `Cc1cccn2c(=O)c(/C=C(\C#N)c3nc4ccccc4s3)c(Oc3ccc(F)cc3)nc12` is ____.
101

Return reported cell viability; argument: `Cn1cc(C(=O)c2cccc3ccccc23)cc1C(=O)O`
100

The measured values listed here are drawn from the supplement of paper PMC13380429.
